Target: AXL (human catalytic domain) (Homo sapiens)
Construct: purchased Upstate Ltd. 14-512
Sequence (P30530 473-894): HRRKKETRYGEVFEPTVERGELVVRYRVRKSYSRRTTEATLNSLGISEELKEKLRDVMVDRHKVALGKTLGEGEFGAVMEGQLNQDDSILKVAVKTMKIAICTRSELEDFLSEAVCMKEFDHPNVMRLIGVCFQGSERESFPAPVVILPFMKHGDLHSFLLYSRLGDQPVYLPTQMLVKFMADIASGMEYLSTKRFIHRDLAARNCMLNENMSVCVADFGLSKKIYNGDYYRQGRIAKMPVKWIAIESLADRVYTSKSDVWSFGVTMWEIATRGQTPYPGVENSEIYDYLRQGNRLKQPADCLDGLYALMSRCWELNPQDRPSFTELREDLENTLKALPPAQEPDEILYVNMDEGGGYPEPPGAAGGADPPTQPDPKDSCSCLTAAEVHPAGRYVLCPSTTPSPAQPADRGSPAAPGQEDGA
Assay: AXL (human catalytic domain) Enzyme Activity Assay (IMAP fluorescence polarisation)
Assay type: biochemical
Conditions: further data set (WW-001 through WW-169, XX-001 through XX-469, YY-001 through YY-016, ZZ-001 through ZZ-003); 150 μM ATP
pIC50: −log10 of the molar value.
Recorded metric: pIC50

Molecule: NC(=O)COc1cccc(-c2cccc3nc(Nc4ccc(OCCN5CCCC5)cc4)nn23)c1
Study system: AXL (human catalytic domain) (Homo sapiens)
Recorded metric: pIC50
Endpoint value: 5.00 to 6.00
--
Molecule: Cc1ccc(-c2nnc(COc3cccc(-c4cccc5nc(Nc6ccc(OCCN7CCCC7)cc6)nn45)c3)o2)cc1
Study system: AXL (human catalytic domain) (Homo sapiens)
Recorded metric: pIC50
Endpoint value: 5.00 to 6.00
--
Molecule: c1cc(-c2ccc(OCC3CCCO3)cc2)n2nc(Nc3ccc(OCCN4CCCC4)cc3)nc2c1 (stereo not shown)
Study system: AXL (human catalytic domain) (Homo sapiens)
Recorded metric: pIC50
Endpoint value: 6.00 to 7.00
--
Molecule: O=C(Nc1nc2cccc(-c3ccc(O)cc3)n2n1)C1CC1
Study system: AXL (human catalytic domain) (Homo sapiens)
Recorded metric: pIC50
Endpoint value: 6.00 to 7.00
--
Molecule: c1cc(-c2ccc3c(c2)OCCO3)n2nc(Nc3ccc(OCCN4CCCCC4)nc3)nc2c1
Study system: AXL (human catalytic domain) (Homo sapiens)
Recorded metric: pIC50
Endpoint value: 6.00 to 7.00
--
Molecule: O=C(Nc1ccc(Cl)cc1)c1cccc(-c2cccc3nc(Nc4ccc(OCCN5CCCC5)cc4)nn23)c1
Study system: AXL (human catalytic domain) (Homo sapiens)
Recorded metric: pIC50
Endpoint value: 5.00 to 6.00
--
Molecule: CN(C)CCOc1ccc(Nc2nc3cccc(-c4ccc5c(c4)OCCO5)n3n2)cc1
Study system: AXL (human catalytic domain) (Homo sapiens)
Recorded metric: pIC50
Endpoint value: ≥ 7.00

----------
Molecular target: AXL (human catalytic domain) (Homo sapiens)
Construct: purchased Upstate Ltd. 14-512
Sequence (P30530 473-894): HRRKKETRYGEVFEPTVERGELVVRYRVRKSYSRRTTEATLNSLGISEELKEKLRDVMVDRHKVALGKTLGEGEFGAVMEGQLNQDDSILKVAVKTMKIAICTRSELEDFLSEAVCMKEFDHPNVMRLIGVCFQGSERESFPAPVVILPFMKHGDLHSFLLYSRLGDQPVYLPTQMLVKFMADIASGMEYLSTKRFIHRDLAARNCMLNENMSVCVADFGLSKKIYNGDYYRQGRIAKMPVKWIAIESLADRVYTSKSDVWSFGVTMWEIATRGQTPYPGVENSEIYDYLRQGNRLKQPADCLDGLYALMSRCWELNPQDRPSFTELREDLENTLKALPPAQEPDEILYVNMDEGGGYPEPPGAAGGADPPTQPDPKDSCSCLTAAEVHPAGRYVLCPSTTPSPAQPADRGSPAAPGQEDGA
Assay: AXL (human catalytic domain) Enzyme Activity Assay (IMAP fluorescence polarisation)
Assay type: biochemical
Conditions: further data set (WW-001 through WW-169, XX-001 through XX-469, YY-001 through YY-016, ZZ-001 through ZZ-003); 150 μM ATP
pIC50: −log10 of the molar value.
Recorded metric: pIC50

Smiles code: COc1ccc(CNc2ccc(-c3cccc4nc(Nc5ccc(OCCN6CCCC6)cc5)nn34)cc2)cc1
Endpoint value: 6.00 to 7.00
//
Smiles code: CN(C)CCNC(=O)c1cccc(Nc2nc3cccc(-c4ccc5c(c4)OCCO5)n3n2)c1
Endpoint value: ≥ 7.00
//
Smiles code: c1cc(-c2ccc3c(c2)OCCO3)n2nc(Nc3ccc(OCCCN4CCCCC4)cc3)nc2c1
Endpoint value: 6.00 to 7.00
//
Smiles code: Cc1ccc(CNc2cccc(-c3cccc4nc(Nc5ccc(OCCN6CCCC6)cc5)nn34)c2)o1
Endpoint value: 6.00 to 7.00
//
Smiles code: c1cc(-c2ccc3c(c2)CCO3)n2nc(Nc3ccc(OCCN4CCCCC4)cc3)nc2c1
Endpoint value: 6.00 to 7.00
//
Smiles code: Cc1cc(Cn2cc(-c3cccc4nc(Nc5ccc(OCCN6CCCC6)cc5)nn34)cn2)no1
Endpoint value: 6.00 to 7.00
//
Smiles code: O=C(Nc1ccccc1)Nc1cccc(-c2cccc3nc(Nc4ccc(OCCN5CCCC5)cc4)nn23)c1
Endpoint value: 6.00 to 7.00
//
Smiles code: CN1CCN(C(=O)c2cccc(Nc3nc4cccc(-c5ccc6c(c5)OCCO6)n4n3)c2)CC1
Endpoint value: 6.00 to 7.00
//
Smiles code: CN(C)CCCc1ccc(Nc2nc3cccc(-c4ccc5c(c4)OCCO5)n3n2)cc1
Endpoint value: 6.00 to 7.00
//
Smiles code: COc1cccc(-c2cccc3nc(Nc4ccc(OCCN5CCCC5)cc4)nn23)c1
Endpoint value: 5.00 to 6.00
